# Tested on: parental HEK cells
# PROTOCOL TEXT: HEK parental Agonist Counterscreen Assay (non-transfected cells)
# Type: cell-based
# ASSAY CONTEXT: HEK Agonist Activity section
QUANTITY MEASURED: Lipophilic Efficiency (logD)

MOLECULE	TARGET OR SYSTEM	Lipophilic Efficiency (logD)
O=C(O)c1ccccc1C(=O)c1cccc2ccccc12	parental HEK cells	4.05

1: C=C(Nc1ccc(-c2cn[nH]c2)cc1)N(C)Cc1cccc(C(=O)CC)c1
2: O=C(Nc1ccc(-c2cn[nH]c2)cc1OCCN1CCCC1)C1COc2ccc(F)cc2C1.O=C(O)C(F)(F)F.O=C(O)C(F)(F)F (stereo not drawn)
Query: Min Lipophilic Efficiency (logD)? 1 | 2 Refer to your chosen entry by its label in the reply.
Reply: 1
(1: 1.85, 2: 2.79)

I: CN(C(=O)CN1C(=O)NC(C)(c2ccc3ccccc3c2)C1=O)C1CCCCC1 (stereo not drawn)
II: Cc1cccc(COc2coc(COc3nccn3C)cc2=O)c1
III: CCc1cc(C2=C/C(=C/c3c(OC)ccc4ccccc34)C(=O)O2)cc(OC)c1OC
IV: C=C1N=C(NC2CCCCCC2)c2ccccc2N1
Query: Order the 4 molecules from highest to lowest Lipophilic Efficiency (logD). List labels; respect the requested ordering.
Reply: II, I, IV, III

====

# TARGET OR SYSTEM: GPR139 (Homo sapiens, UniProt Q6DWJ6)
# Sequence (Q6DWJ6 1-353): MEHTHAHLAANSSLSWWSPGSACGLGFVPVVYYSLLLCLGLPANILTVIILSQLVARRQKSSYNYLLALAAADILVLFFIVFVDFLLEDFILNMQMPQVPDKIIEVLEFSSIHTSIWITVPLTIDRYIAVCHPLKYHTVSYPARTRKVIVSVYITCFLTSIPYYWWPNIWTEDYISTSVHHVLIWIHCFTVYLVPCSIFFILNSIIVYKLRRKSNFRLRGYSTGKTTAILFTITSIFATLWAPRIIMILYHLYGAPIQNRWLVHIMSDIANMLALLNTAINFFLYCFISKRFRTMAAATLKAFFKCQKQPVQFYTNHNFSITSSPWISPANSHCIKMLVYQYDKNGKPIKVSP
# PROTOCOL TEXT: GPR139 Agonist titration / agonist counterscreen assay (calcium detection, HEK-GPR139 cells)
# Assay type: cell-based
# Parameters: expressed in transfected cells; host or cells: HEK Aequorin cells, Maxcyte transient transfection
# ASSAY CONTEXT: GPR139 Agonist Activity; activity relative to known control
QUANTITY MEASURED: Averaged Max % Response (±St. Dev.) (%)

In the examples that follow, each entry is paired with its recorded Averaged Max % Response (±St. Dev.).
COMPOUND	Averaged Max % Response (±St. Dev.), %
COc1ccc(OC)c(NC(=O)NNC(=O)C(C)Oc2ccc(Cl)cc2Cl)c1 (centres unmarked)	97.36
Cc1ccc(CCNC(=O)CN2CCN(Cc3ccccc3Cl)C2=O)cc1	83.25
Cc1ccc2c(c1)-c1c(cnn1CC(=O)Nc1ncccc1C)CO2	96.96
O=C1N2CN(Cc3ccccc3)CN3C(=O)N4CN(Cc5ccccc5)CN1C4C23 (centres unmarked)	117.44
COc1cc(C(C)=O)ccc1OCC(=O)NC(C)CCc1ccccc1 (centres unmarked)	102.89
C=C(Nc1ccc(-c2cn[nH]c2)cc1)N(C)Cc1cccc(C(=O)CC)c1	75.98

a: O=C(C1CC1)N1CCc2cc(S(=O)(=O)NCC3COc4ccccc4O3)ccc21 (centres unmarked)
b: COP(=O)(CN(CCc1ccc(Cl)cc1)C(=O)Nc1ccc(Cl)c(Cl)c1)OC
Query: Please state the entry with greater Averaged Max % Response (±St. Dev.) among a and b . Refer to your chosen entry by its label in the reply.
Reply: b
(b: 123.61%, a: 78.64%)

A: COc1ccc(C2(C)NC(=O)N(CC(=O)NC3CCCC3)C2=O)cc1 (centres unmarked)
B: CCCc1ccc(NC(=O)CCc2nc3c(c(=O)n2C)CCC3)cc1
Query: Min Averaged Max % Response (±St. Dev.)? A | B Refer to your chosen entry by its label in the reply.
Reply: B
(B: 69.12%, A: 106.93%)
